Substrate: CC(C)=CCC/C(C)=C/CC/C(C)=C/CO[P@@](=O)(O)OP(=O)(O)O
Assay: purified protein
Format: biochemical, Coniophora puteana
Conditions: 25 °C, FPP 0-70 µM in methanol, 0.8–1.2 µM enzyme
Could you please report measured Km for the items listed next?
Give bare numbers, in µM.

Study these solved cases before continuing.
Would you kindly share the measured Km for Copu9 (Coniophora puteana RWD-64-598 SS2; T192N) (protein, full-length, codon-optimized, N-terminal hexa-His tag (pET-M11), expressed in E. coli BL21 RIL DE3; homodimer; 13 N-terminal residues not visible in crystal) MSPTATFTTTSSEENAPTKFILPDLVSDCTYPLLLNDNCEPVARASEQWLIAGARLQEPRRTKFMGLLAGELTAACYPHADASHLRVCVDFMNWLFNMDDWLDDFDVDDTWGMRHCCLGAFRDPVGFETDKLGGLMSKSFFSRFRQDGGPGCTERFIHTMDLFFIAVAQQAGDRANGITPDLESYITVRRDNSGCKPCFALIEYAAGIDLPDHVIYHPTLAAMEEATNDLVTWSNDIFSYNKEQVTDDTHNMIPVLMRERGLDLQGAVDFVGRLCKGTIERFETERARLPSWGPELDAQVQTYIEGLQNWIVGSLHWSFDSHRYFGKDGHAVKKHRIVKLLPKRVPQQA ?
8.28

Give the measured Km of Copu9 (Coniophora puteana RWD-64-598 SS2) (protein, full-length, codon-optimized, N-terminal hexa-His tag (pET-M11), expressed in E. coli BL21 RIL DE3; homodimer; 13 N-terminal residues not visible in crystal) MSPTATFTTTSSEENAPTKFILPDLVSDCTYPLLLNDNCEPVARASEQWLIAGARLQEPRRTKFMGLLAGELTAACYPHADASHLRVCVDFMNWLFNMDDWLDDFDVDDTWGMRHCCLGAFRDPVGFETDKLGGLMSKSFFSRFRQDGGPGCTERFIHTMDLFFIAVAQQAGDRANGITPDLESYITVRRDTSGCKPCFALIEYAAGIDLPDHVIYHPTLAAMEEATNDLVTWSNDIFSYNKEQVTDDTHNMIPVLMRERGLDLQGAVDFVGRLCKGTIERFETERARLPSWGPELDAQVQTYIEGLQNWIVGSLHWSFDSHRYFGKDGHAVKKHRIVKLLPKRVPQQA .
4.59

We now examine a further protein.
What value of measured Km is listed for Copu9 (Coniophora puteana RWD-64-598 SS2; S314N) (protein, full-length, codon-optimized, N-terminal hexa-His tag (pET-M11), expressed in E. coli BL21 RIL DE3; homodimer; 13 N-terminal residues not visible in crystal) MSPTATFTTTSSEENAPTKFILPDLVSDCTYPLLLNDNCEPVARASEQWLIAGARLQEPRRTKFMGLLAGELTAACYPHADASHLRVCVDFMNWLFNMDDWLDDFDVDDTWGMRHCCLGAFRDPVGFETDKLGGLMSKSFFSRFRQDGGPGCTERFIHTMDLFFIAVAQQAGDRANGITPDLESYITVRRDTSGCKPCFALIEYAAGIDLPDHVIYHPTLAAMEEATNDLVTWSNDIFSYNKEQVTDDTHNMIPVLMRERGLDLQGAVDFVGRLCKGTIERFETERARLPSWGPELDAQVQTYIEGLQNWIVGNLHWSFDSHRYFGKDGHAVKKHRIVKLLPKRVPQQA ?
5.10
